# System Tested: chromodomain of CBX5 (human)
# Sequence (Q9UN86 18-75): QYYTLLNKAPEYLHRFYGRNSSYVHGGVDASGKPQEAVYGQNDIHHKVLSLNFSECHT
# Assay Info: AlphaScreen or HTRF
pIC50: −log10 of the molar value. Ends that are not written are not given here. diethyl = not defined here
Property Measured: pIC50

Qu. Please give the measured pIC50 for this binder: {4‑tBu‑Bz}-F(CH2NH2)ALK(diethyl)S-OMe (reading uncertain) [compound 47]
Ans. 4.28

Qu. Entry under review: {4‑tBu‑Bz}-F(CH2NHBoc)ALK(diethyl)S-OMe (reading uncertain) [compound 48] . Reported pIC50?
Ans. 4.36

Qu. Field request: pIC50 | item: {4‑tBu‑Bz}-FALK(diethyl)S-NMe2 (reading uncertain) [compound 45]
Ans. < 4.22

Qu. For the binder {4‑tBu‑Bz}-FVLK(diethyl)S-OMe (reading uncertain) [compound 43] , what pIC50 is on record?
Ans. < 4.22

Qu. What does the data say about its pIC50? Entry: {4‑tBu‑Bz}-FALK(diethyl)S-OH (reading uncertain) [compound 44]
Ans. < 4.22

Qu. # pIC50 lookup, item {4‑tBu‑Bz}-FALK(diethyl)S (reading uncertain; also: C-terminal carbonyl removed entirely (R3 = -H)) [compound 46]
Ans. < 4.22
